test: qHTS Assay for Inhibitors of Hepatitis C Virus (HCV); conditions: Huh7.5.1 HCVcc-Cre infection, luciferase reporter, 44 h; series mostly up to 41.8 µM
Among all 340,000 compounds or so, about 12,000 (3.5%) were called active. Inconclusive results (about 18%) are left out. Calls come from the whole dose curve; as a rule, active = well fitted inhibition curve with a large enough effect; inconclusive = small, poorly fitted or top-dose-only effect, or another doubt; inactive = no such curve, though single readings can be large or run the other way. Shown is part of a subset that was picked to be rich in actives.
Classes used: 1 for active, 0 for inactive

Compound: CN(CC(=O)O)C(=O)c1ccccc1
Assigned category: 0

Compound: Cc1csc(SCC(=O)N(c2ccccc2)C(C)C)n1
Assigned category: 0

Compound: CN(C)S(=O)(=O)c1cccc(NC(=O)COC(=O)/C=C/c2cccs2)c1
Assigned category: 0

Compound: CC(CNC(=O)Cn1cnc2c(OCc3ccccc3)ncnc21)c1ccccc1 (stereo not drawn)
Assigned category: 0

Compound: Cc1ccc(N(Cc2cc3ccccc3[nH]c2=O)C(=O)c2cccs2)cc1
Assigned category: 0

Compound: COc1ccccc1CCNC(=O)C(=O)NCCC1CCCCN1S(=O)(=O)c1cccs1 (stereo not drawn)
Assigned category: 1

Compound: O=C(CSc1nc(Nc2ccccc2)nc(N2CCOCC2)n1)Nc1cc(Cl)ccc1O
Assigned category: 1

Compound: COc1ccc(NC(=O)C2=NNC(=O)CC2)cc1S(=O)(=O)N1CCCCC1
Assigned category: 0

Compound: Cc1ccc(S(=O)(=O)N2CCC(C(=O)N3CCCCCCC3)CC2)cc1
Assigned category: 0

Compound: C/C(=N\NC(=O)Cc1ccc(Cl)cc1)c1ccccn1
Assigned category: 1

Compound: CCCCNC(=O)CSc1nnc(-c2ccco2)n1C
Assigned category: 0

Compound: O=C(CN1CCOCC1)Nc1cc(Cl)ccc1Cl
Assigned category: 0

Compound: COc1ccc(-c2n[nH]c(C)c2-c2ccc(OC)c(OC)c2)c(O)c1
Assigned category: 1

Compound: Cc1ccc(NC(=O)COC(=O)C2CC2)cc1S(=O)(=O)N1CCOCC1
Assigned category: 0

Compound: O=C(NCC(c1ccco1)N1CCc2ccccc2C1)c1ccccc1Cl (stereo not drawn)
Assigned category: 0

Compound: COc1ccc(-c2csc(Nc3ccc(O)cc3)n2)cc1
Assigned category: 1

Compound: COc1ccc(NC(=O)CN(C)C(=O)c2cc(-c3ccc(C)o3)nc3ccccc23)cc1
Assigned category: 0

Compound: Cc1cc(N2CCN(c3ccccc3)CC2)nc(N2CCOCC2)n1
Assigned category: 0

Compound: Cc1ccc(NC(=O)CCC(=O)N2CCC(c3ccccc3)=N2)cc1S(=O)(=O)N1CCCCC1
Assigned category: 0

Compound: Cc1ccccc1OCC(=O)Nc1ccc2c(c1)ncn2C
Assigned category: 0

Compound: COc1cc(O)c2c(=O)c3c(O)c(O)ccc3oc2c1OC
Assigned category: 0

Compound: COc1ccc(-n2c(-c3ccc(OC)c(OC)c3)n[nH]c2=S)cc1
Assigned category: 0

Compound: O=C(NCc1ccccc1Cl)C(=O)NCC1CCCN1S(=O)(=O)c1cccs1 (stereo not drawn)
Assigned category: 0

Compound: CCOc1cc(/C=N/NC(=O)c2cc(-c3ccccc3)nc3ccccc23)ccc1O
Assigned category: 0

Compound: COc1ccccc1C(=O)Nc1ccc(OCC(=O)N2CCCCC2)cc1
Assigned category: 0

Compound: O=C(CN1C(=O)c2ccc([N+](=O)[O-])cc2C1=O)Nc1nnc(C2CC2)s1
Assigned category: 0

Compound: COc1ccc(C(=O)NCC2CCCN2S(=O)(=O)c2cccs2)cc1OC (stereo not drawn)
Assigned category: 0

Compound: COc1cccc(NC(=O)CN(C)CC(=O)c2c(N)n(Cc3ccccc3)c(=O)n(C)c2=O)c1
Assigned category: 0

Compound: O=C(CCN1CCN(C/C=C/c2ccccc2)CC1)Nc1ccccc1Cl
Assigned category: 0

Compound: COc1cccc(CNC(=O)CN2C(=O)NC(Cc3ccccc3)(c3ccccc3)C2=O)c1 (stereo not drawn)
Assigned category: 0

Compound: CCOC(=O)C1CCCN(C(=O)c2ccc(C)c(S(=O)(=O)N3CCCCC3)c2)C1 (stereo not drawn)
Assigned category: 0

Compound: O=[N+]([O-])c1ccc(C=NN=Cc2ccc([N+](=O)[O-])cc2)cc1
Assigned category: 0

Compound: CCCCNC(=O)CSc1nccn1Cc1ccccc1
Assigned category: 0

Compound: O=C(Nc1ccc(NC(=O)c2ccccc2F)cc1)c1ccccc1F
Assigned category: 0

Compound: COC(=O)CCc1sc(Nc2ccc(Br)cc2)nc1-c1ccc(OC)cc1
Assigned category: 0

Compound: COc1ccccc1C(=O)Nc1ccc(C)c(S(=O)(=O)N2CCCCC2)c1
Assigned category: 1

Compound: Cc1cc(C(=O)Nc2ccc(C)c(S(=O)(=O)N3CCOCC3)c2)c2ccccc2n1
Assigned category: 1

Compound: CCC(=O)c1cc(F)ccc1OCC(=O)Nc1ccc2c(c1)OCCO2
Assigned category: 0

Compound: Cc1ccc(S(=O)(=O)N2CCC(C(=O)OCC(=O)N(C)c3ccccc3)CC2)cc1C
Assigned category: 0

Compound: CC(C)(C)C(=O)OCc1nc(-c2ccc(O)c(O)c2)cs1
Assigned category: 0

Compound: COc1ccc(CNC(=O)C[C@H]2C[C@H](C(=O)N3CCOCC3)[C@@]3(C)c4[nH]c5cc(CCC(=O)N(C)C)ccc5c4CCN3C2=O)cc1OC
Assigned category: 0

Compound: O=C(N/N=C/c1cc(Br)c(O)c([N+](=O)[O-])c1)C(O)(c1ccccc1)c1ccccc1
Assigned category: 0

Compound: O=C1c2ccccc2C(=O)c2c1cccc2N1CCN(C/C=C/c2ccccc2)CC1
Assigned category: 1

meta.source: PubChem BioAssay AID651820
